Listing of recorded ε (molecular extinction coefficient) by entry.
- testSummary: absorption spectrum, light emission spectrum, molecular extinction coefficient and quantum efficiency in solvents
- Format: physicochemical
- settings: solvent CH2Cl2

- molecule: "CC1(C)C2=C3C=CC(=O)OC3CCN2c2ccc(S(=O)(=O)[O-])cc21.[Na+] (centres unmarked)"
  ε (molecular extinction coefficient): "22,000 Lmol^−1cm^−1"
- molecule: "CC1(C)C2=C3C=C(C(=O)CCCC(=O)[O-])C(=O)OC3CCN2c2ccc3cc(S(=O)(=O)[O-])ccc3c21.[Na+].[Na+] (centres unmarked)"
  ε (molecular extinction coefficient): "49,000 Lmol^−1cm^−1"
- molecule: "CC1(C)C2=C3C=C(CC(=O)O)C(=O)OC3CCN2c2ccccc21 (centres unmarked)"
  ε (molecular extinction coefficient): "15,000 Lmol^−1cm^−1"
- molecule: "CC1(C)C2=C3C=C(C(=O)O)C(=O)OC3CCN2c2cc3c(cc21)-c1ccccc1C3(C)C (centres unmarked)"
  ε (molecular extinction coefficient): "46,000 Lmol^−1cm^−1"
- molecule: "CC1(C)C2=C3C=C(CC(=O)[O-])C(=O)OC3CCN2c2ccc(S(=O)(=O)[O-])cc21.[Na+].[Na+] (centres unmarked)"
  ε (molecular extinction coefficient): "22,000 Lmol^−1cm^−1"
- molecule: "CC1(C)C2=C3C=C(C(=O)[O-])C(=O)OC3CCN2c2ccc(S(=O)(=O)[O-])cc21.[Na+].[Na+] (centres unmarked)"
  ε (molecular extinction coefficient): "20,000 Lmol^−1cm^−1"
- molecule: "COC(=O)C1=CC2=C3N(CCC2OC1=O)c1cc2c(cc1C3(C)C)-c1ccccc1C2(C)C (centres unmarked)"
  ε (molecular extinction coefficient): "41,000 Lmol^−1cm^−1"
- molecule: "CCOC(=O)CCCC(=O)C1=CC2=C3N(CCC2OC1=O)c1ccc2ccccc2c1C3(C)C (centres unmarked)"
  ε (molecular extinction coefficient): "42,000 Lmol^−1cm^−1"
